molecular target: Protein farnesyltransferase/geranylgeranyltransferase type-1 subunit alpha / Protein farnesyltransferase subunit beta (Plasmodium falciparum, UniProt Q5EI73+Q5EI74); experiment: PfPFT IC50 Determination; details: pH 7.5; 37 °C
Sequence (Q5EI73 1-521): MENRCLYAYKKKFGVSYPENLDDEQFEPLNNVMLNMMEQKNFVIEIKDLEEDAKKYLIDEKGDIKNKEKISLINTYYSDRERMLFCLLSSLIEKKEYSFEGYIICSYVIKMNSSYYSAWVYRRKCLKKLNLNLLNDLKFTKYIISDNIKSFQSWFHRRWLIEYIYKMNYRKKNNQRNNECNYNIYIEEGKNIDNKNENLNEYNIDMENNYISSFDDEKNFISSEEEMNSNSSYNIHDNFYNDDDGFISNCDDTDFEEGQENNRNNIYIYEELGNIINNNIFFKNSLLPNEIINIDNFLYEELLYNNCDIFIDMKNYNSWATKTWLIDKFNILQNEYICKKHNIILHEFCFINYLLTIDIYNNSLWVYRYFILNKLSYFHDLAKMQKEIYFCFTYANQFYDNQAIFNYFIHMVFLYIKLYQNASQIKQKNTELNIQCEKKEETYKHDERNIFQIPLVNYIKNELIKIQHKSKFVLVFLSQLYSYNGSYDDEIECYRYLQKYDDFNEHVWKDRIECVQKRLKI
Sequence (Q5EI74 1-923): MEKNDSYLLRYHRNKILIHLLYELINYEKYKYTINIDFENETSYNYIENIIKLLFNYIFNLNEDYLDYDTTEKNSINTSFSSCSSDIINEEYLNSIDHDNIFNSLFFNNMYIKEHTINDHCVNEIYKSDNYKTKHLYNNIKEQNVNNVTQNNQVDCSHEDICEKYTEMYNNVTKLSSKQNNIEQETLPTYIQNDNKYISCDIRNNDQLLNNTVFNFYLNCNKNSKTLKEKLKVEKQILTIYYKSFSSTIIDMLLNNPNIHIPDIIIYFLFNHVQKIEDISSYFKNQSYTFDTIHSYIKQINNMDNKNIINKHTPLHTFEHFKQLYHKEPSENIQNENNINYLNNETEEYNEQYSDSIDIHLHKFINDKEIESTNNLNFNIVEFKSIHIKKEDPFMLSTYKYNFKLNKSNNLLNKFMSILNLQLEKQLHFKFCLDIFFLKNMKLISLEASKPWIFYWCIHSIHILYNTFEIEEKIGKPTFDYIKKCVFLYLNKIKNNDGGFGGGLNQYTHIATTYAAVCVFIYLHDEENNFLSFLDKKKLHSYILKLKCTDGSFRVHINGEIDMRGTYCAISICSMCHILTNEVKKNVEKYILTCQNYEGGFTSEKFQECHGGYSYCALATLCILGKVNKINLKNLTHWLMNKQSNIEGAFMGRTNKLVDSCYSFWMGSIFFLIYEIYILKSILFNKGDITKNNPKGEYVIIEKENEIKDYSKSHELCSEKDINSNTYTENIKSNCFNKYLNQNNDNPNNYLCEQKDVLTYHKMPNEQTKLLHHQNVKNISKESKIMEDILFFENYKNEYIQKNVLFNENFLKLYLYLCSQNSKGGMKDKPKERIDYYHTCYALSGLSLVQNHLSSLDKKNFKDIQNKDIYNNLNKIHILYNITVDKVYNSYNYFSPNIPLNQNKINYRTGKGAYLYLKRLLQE
reportedProperty: pIC50
# log scale: pIC50 equals minus log10 of the concentration in mol/L

Exercise: Please report pIC50 for the following molecule: Cc1ccccc1S(=O)(=O)N(CCN(Cc1cncn1C)c1ccc(C#N)cc1)CC1CCN(C(=O)OC(C)(C)C)CC1 [ethylenediamine scaffold, 5]
Solution: 8.52

Exercise: Please report pIC50 for the following molecule: Cc1ccccc1S(=O)(=O)N(CCN(Cc1cncn1C)c1ccc(C#N)cc1)Cc1ccccc1 [ethylenediamine scaffold, 7]
Solution: 8.30

Exercise: Please report pIC50 for the following molecule: Cn1cncc1CN(CCN(CC1CCN(C(=O)OC(C)(C)C)CC1)S(=O)(=O)c1ccccc1-c1cccc(CCC(=O)O)c1)c1ccc(C#N)cc1 [ethylenediamine scaffold, 10]
Solution: 7.15

Exercise: Please report pIC50 for the following molecule: Cn1cnc(S(=O)(=O)N(CCN(Cc2cncn2C)c2ccc(C#N)cc2)CC2CCN(C(=O)OC(C)(C)C)CC2)c1 [ethylenediamine scaffold, 4]
Solution: 8.92

* * *

target: Protein farnesyltransferase subunit beta/geranylgeranyltransferase type-1 subunit alpha (Homo sapiens, UniProt P49354+P49356); assay: In Vitro PFT Activity Assay; settings: pH 7.7; 30 °C
reportedProperty: IC50 (nM)
Give the number; nM is assumed, so skip it.

Exercise: Please report IC50 for the following molecule: Cn1cnc(S(=O)(=O)N(CCN(Cc2cncn2C)c2ccc(C#N)cc2)CC2CCN(C(=O)OC(C)(C)C)CC2)c1 [ethylenediamine scaffold, 4]
Solution: 3700

Exercise: Please report IC50 for the following molecule: Cc1ccccc1S(=O)(=O)N(CCN(Cc1cncn1C)c1ccc(C#N)cc1)Cc1ccccc1 [ethylenediamine scaffold, 7]
Solution: 160

Exercise: Please report IC50 for the following molecule: Cn1cncc1CN(CCN(CC1CCN(C(=O)OC(C)(C)C)CC1)S(=O)(=O)c1ccccc1-c1cccc(CCC(=O)O)c1)c1ccc(C#N)cc1 [ethylenediamine scaffold, 10]
Solution: 800

Exercise: Please report IC50 for the following molecule: Cn1cnc(S(=O)(=O)N(CCN(Cc2cncn2C)c2ccc(C#N)cc2)Cc2ccccc2)c1
Solution: 56

The reported measurements were obtained from BindingDB's records for doi:10.1016/j.chembiol.2009.01.014.
